system: XIAP-BIR3 (Homo sapiens (Human), UniProt P98170)
Sequence (P98170 241-356): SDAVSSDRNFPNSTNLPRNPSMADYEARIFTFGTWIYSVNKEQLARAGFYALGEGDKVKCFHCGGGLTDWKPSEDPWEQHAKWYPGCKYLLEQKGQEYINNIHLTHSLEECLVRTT
test.description: BIR binding assay (FRET competition), XIAP BIR3
quantity.name: IC50

smiles.repr: C[C@@H]1CN(CC(=O)N2CC(C)(C)c3[nH]c(=O)c(Cc4ccc(F)cc4)cc32)[C@@H](CN2CCN(C(=O)c3ccc4cc(C(=O)N5CCN(C[C@H]6CN[C@H](C)CN6CC(=O)N6CC(C)(C)c7[nH]c(=O)c(Cc8ccc(F)cc8)cc76)[C@H](C)C5)ccc4c3)C[C@H]2C)CN1
IC50: 0.00138 to 0.00794 µM

Param item = "C[C@@H]1CN(CC(=O)N2CC(C)(C)c3[nH]c(=O)c(Cc4ccc(F)cc4C#N)cc32)[C@@H](CN2CCO[C@H](C(=O)NCc3ccc(CNC(=O)[C@@H]4CN(C[C@H]5CN[C@H](C)CN5CC(=O)N5CC(C)(C)c6[nH]c(=O)c(Cc7ccc(F)cc7C#N)cc65)CCO4)cc3)C2)CN1" ; retrieve measured IC50.
0.0316 to 0.501 µM

Param item = "C[C@@H]1CN(CC(=O)N2CC(C)(C)c3[nH]c(=O)c(Cc4ccc(F)cc4)cc32)[C@@H](CN2CCO[C@H](C(=O)NCC(O)CNC(=O)[C@@H]3CN(C[C@H]4CN[C@H](C)CN4CC(=O)N4CC(C)(C)c5[nH]c(=O)c(Cc6ccc(F)cc6)cc54)CCO3)C2)CN1" ; retrieve measured IC50.
0.0158 to 0.0316 µM

Param item = "C[C@@H]1CN(CC(=O)N2CC(C)(C)c3[nH]c(=O)c(Cc4ccc(F)cc4)cc32)[C@@H](CN2CCO[C@H](COc3ccc(C(=O)C(=O)c4ccc(OC[C@@H]5CN(C[C@H]6CN[C@H](C)CN6CC(=O)N6CC(C)(C)c7[nH]c(=O)c(Cc8ccc(F)cc8)cc76)CCO5)cc4)cc3)C2)CN1" ; retrieve measured IC50.
0.0158 to 0.0316 µM

* * *

Tested on: Jurkat HIV-luciferase clones
test.description: Jurkat latency reversal assay
Assay type: cell-based
experimental.conditions: Homo sapiens, 48 h; Jurkat latency reversal assay potency; read-out: Jurkat pEC50 (converted)
Experimental: Jurkat HIV-luciferase clones were maintained in RPMI medium 1640 (Gibco by Life Technologies) containing 10% (vol/vol) fetal bovine serum (SAFC/Sigma-Aldrich) and 25 units/mL penicillin, 25 units/mL streptomycin (Gibco by Life Technologies), and were split 1:4 every 3 to 4 days to maintain a cell density of ˜0.3 to 1 million cells/mL. […] Luminescence resulting from the induction of the virally expressed luciferase was measured using an EnVision 2102 Multilabel Plate Reader (Perkin Elmer). […]
quantity.name: EC50

molecule: C[C@@H]1CN(CC(=O)N2CC(C)(C)c3[nH]c(=O)c(Cc4ccc(Cl)cc4Cl)cc32)[C@@H](CN2CCO[C@H](COc3cccc(OC[C@@H]4CN(C[C@H]5CN[C@H](C)CN5CC(=O)N5CC(C)(C)c6[nH]c(=O)c(Cc7ccc(Cl)cc7Cl)cc65)CCO4)c3)C2)CN1 [Compound 187]
system: Jurkat HIV-luciferase clones
EC50: 0.00049 to 0.0126 µM
--
molecule: C[C@@H]1CN(CC(=O)N2CC(C)(C)c3[nH]c(=O)c(Cc4ccc(F)cc4)cc32)[C@@H](CN2CCN(C(=O)CCCCCCCCC(=O)N3CCN(C[C@H]4CN[C@H](C)CN4CC(=O)N4CC(C)(C)c5[nH]c(=O)c(Cc6ccc(F)cc6)cc54)[C@H](C)C3)C[C@H]2C)CN1 [Example 3]
system: Jurkat HIV-luciferase clones
EC50: 0.0126 to 0.0631 µM
--
molecule: Cc1c(NC(=O)[C@@H]2CN(C[C@H]3CN[C@H](C)CN3CC(=O)N3CC(C)(C)c4[nH]c(=O)c(Cc5ccc(F)cc5)cc43)CCO2)cccc1NC(=O)[C@@H]1CN(C[C@H]2CN[C@H](C)CN2CC(=O)N2CC(C)(C)c3[nH]c(=O)c(Cc4ccc(F)cc4)cc32)CCO1 [Compound 141]
system: Jurkat HIV-luciferase clones
EC50: 0.0126 to 0.0631 µM

Next item in the queue.
Param item = C[C@@H]1CN(CC(=O)N2CC(C)(C)c3[nH]c(=O)c(Oc4ccc(Br)cc4)cc32)[C@@H](CN2CCO[C@H](C(=O)NCc3ccc(CNC(=O)[C@@H]4CN(C[C@H]5CN[C@H](C)CN5CC(=O)N5CC(C)(C)c6[nH]c(=O)c(Oc7ccc(Br)cc7)cc65)CCO4)cc3)C2)CN1 [Compound 183] ; retrieve measured EC50.
0.0631 to 0.316 µM

* * *

system: XIAP-BIR3 (Homo sapiens (Human))
test.description: BIR binding assay (FRET competition), XIAP BIR3
pIC50: −log10 of the molar value.
quantity.name: pIC50

Param item = "C[C@@H]1CN(CC(=O)N2CC(C)(C)c3[nH]c(=O)c(Cc4c(Cl)cc(Cl)cc4Cl)cc32)[C@@H](CN2CCO[C@H](C(=O)NCc3ccc(CNC(=O)[C@@H]4CN(C[C@H]5CN[C@H](C)CN5CC(=O)N5CC(C)(C)c6[nH]c(=O)c(Cc7c(Cl)cc(Cl)cc7Cl)cc65)CCO4)cc3)C2)CN1" ; retrieve measured pIC50.
6.30 to 7.50

Param item = "C[C@@H]1CN(CC(=O)N2CC(C)(C)c3[nH]c(=O)c(Cc4ccc(F)cc4)cc32)[C@@H](CN2CCO[C@H](C(=O)NCCCCCCCCCCNC(=O)[C@@H]3CN(C[C@H]4CN[C@H](C)CN4CC(=O)N4CC(C)(C)c5[nH]c(=O)c(Cc6ccc(F)cc6)cc54)CCO3)C2)CN1" ; retrieve measured pIC50.
7.50 to 7.80

Param item = "C[C@@H]1CN(CC(=O)N2CC(C)(C)c3[nH]c(=O)c(Cc4ccc(F)cc4)cc32)[C@@H](CN2CCO[C@H](C(=O)NCC(=O)N3CCN(C[C@H]4CN[C@H](C)CN4CC(=O)N4CC(C)(C)c5[nH]c(=O)c(Cc6ccc(F)cc6)cc54)[C@H](C)C3)C2)CN1" ; retrieve measured pIC50.
7.80 to 8.10

Param item = "C[C@@H]1CN(CC(=O)N2CC(C)(C)c3[nH]c(=O)c(Cc4ccc(F)cc4)cc32)[C@@H](CN2CCO[C@H](COc3ccccc3Cc3ccccc3OC[C@@H]3CN(C[C@H]4CN[C@H](C)CN4CC(=O)N4CC(C)(C)c5[nH]c(=O)c(Cc6ccc(F)cc6)cc54)CCO3)C2)CN1" ; retrieve measured pIC50.
7.50 to 7.80

Param item = "C[C@@H]1CN(CC(=O)N2CC(C)(C)c3[nH]c(=O)c(Cc4ccc(F)cc4)cc32)[C@@H](CN2CCO[C@@H](C(=O)NCc3ccc(CNC(=O)[C@H]4CN(C[C@H]5CN[C@H](C)CN5CC(=O)N5CC(C)(C)c6[nH]c(=O)c(Cc7ccc(F)cc7)cc65)CCO4)cc3)C2)CN1" ; retrieve measured pIC50.
6.30 to 7.50

Param item = "C[C@@H]1CN(CC(=O)N2CC(C)(C)c3[nH]c(=O)c(Cc4ccc(F)cc4)cc32)[C@@H](CN2CCO[C@H](COc3cccc(OC[C@@H]4CN(C[C@H]5CN[C@H](C)CN5CC(=O)N5CC(C)(C)c6[nH]c(=O)c(Cc7ccc(F)cc7)cc65)CCO4)c3)C2)CN1" ; retrieve measured pIC50.
7.50 to 7.80

Param item = "C[C@@H]1CN(CC(=O)N2CC(C)(C)c3[nH]c(=O)c(Cc4ccc(F)cc4)cc32)[C@@H](CN2CCO[C@H](COCCCCCOC[C@@H]3CN(C[C@H]4CN[C@H](C)CN4CC(=O)N4CC(C)(C)c5[nH]c(=O)c(Cc6ccc(F)cc6)cc54)CCO3)C2)CN1" ; retrieve measured pIC50.
6.30 to 7.50

Param item = "C[C@@H]1CN(CC(=O)N2CC(C)(C)c3[nH]c(=O)c(Cc4ccc(F)cc4)cc32)[C@@H](CN2CCO[C@H](COc3ccc(CCc4ccc(OC[C@@H]5CN(C[C@H]6CN[C@H](C)CN6CC(=O)N6CC(C)(C)c7[nH]c(=O)c(Cc8ccc(F)cc8)cc76)CCO5)cc4)cc3)C2)CN1" ; retrieve measured pIC50.
7.50 to 7.80

* * *

system: XIAP-BIR3 (Homo sapiens (Human))
test.description: BIR binding assay (FRET competition), XIAP BIR3
experimental.conditions: fold separation (FS) for XIAP

compound: C[C@@H]1CN(CC(=O)N2CC(C)(C)c3[nH]c(=O)c(Cc4ccc(F)cc4)cc32)[C@@H](CN2CCC(COc3cccc(OCC4CCN(C[C@H]5CN[C@H](C)CN5CC(=O)N5CC(C)(C)c6[nH]c(=O)c(Cc7ccc(F)cc7)cc65)CC4)c3)CC2)CN1 [Example 107]
XIAP BIR3 vs BIR2 separation window: ++++ (FS>10,000)
--
compound: C[C@@H]1CN(CC(=O)N2CC(C)(C)c3[nH]c(=O)c(Cc4ccc(F)cc4)cc32)[C@@H](CN2CCN(C(=O)COCCOCCOCC(=O)N3CCN(C[C@H]4CN[C@H](C)CN4CC(=O)N4CC(C)(C)c5[nH]c(=O)c(Cc6ccc(F)cc6)cc54)[C@H](C)C3)C[C@H]2C)CN1 (stereo in doubt) [Example 6]
XIAP BIR3 vs BIR2 separation window: ++++ (FS>10,000)
--
compound: Cc1c(OC[C@@H]2CN(C[C@H]3CN[C@H](C)CN3CC(=O)N3CC(C)(C)c4[nH]c(=O)c(Cc5ccc(F)cc5)cc43)CCO2)cccc1OC[C@@H]1CN(C[C@H]2CN[C@H](C)CN2CC(=O)N2CC(C)(C)c3[nH]c(=O)c(Cc4ccc(F)cc4)cc32)CCO1 [Example 79]
XIAP BIR3 vs BIR2 separation window: ++++ (FS>10,000)
